Entries and their measured growth follow.
test system: Escherichia coli IAI1; test: growth (OD595) fold change vs plate DMSO controls (fold change (ratio)); higher = more growth; conditions: incubation time: 27 h, anaerobic, 37 °C
Structures can show the parent of a compound that is named as a salt.
Keep the answer to the number alone.

> print(dat)
                                   molecule  assay.endpoint  endpoint.result
1  N[C@@H](C(=O)N[C@@H]1C(=O)N2C(C(=O)O)=C(Cl)CS[C@H]12)c1ccccc1 [Cefaclor hydrate] (20 µM)          growth            0.999
2  CS(=O)(=O)c1ccc([C@@H](O)[C@@H](CO)NC(=O)C(Cl)Cl)cc1 [Thiamphenicol] (20 µM)          growth            0.551
3  CCOC(=O)[N-]c1c[n+](N2CCOCC2)no1 [Molsidomine] (20 µM)          growth             1.04
4  NC1CCN(c2c(F)cc3c(=O)c(C(=O)O)cn(C4CC4)c3c2Cl)C1 (configuration not stated) [Clinafloxacin] (20 µM)          growth           0.0142
5  NNc1nncc2ccccc12 [Hydralazine hydrochloride] (20 µM)          growth            0.997

// recorded growth for C=C(C)[C@@H]1CC=C(/C=N/O)CC1 [Perillartine] (50 µM) : 1.04

For reference, reported growth for CCCOc1ccccc1-c1nc2[nH]nnc2c(=O)[nH]1 [Zaprinast] (20 µM) stands at 0.972

All figures here come from the supplement of paper PMC12494721.
